# MEASUREMENT_TARGET: Kv1.3 potassium channel (Homo sapiens, UniProt P22001)
# Sequence (P22001 whole entry): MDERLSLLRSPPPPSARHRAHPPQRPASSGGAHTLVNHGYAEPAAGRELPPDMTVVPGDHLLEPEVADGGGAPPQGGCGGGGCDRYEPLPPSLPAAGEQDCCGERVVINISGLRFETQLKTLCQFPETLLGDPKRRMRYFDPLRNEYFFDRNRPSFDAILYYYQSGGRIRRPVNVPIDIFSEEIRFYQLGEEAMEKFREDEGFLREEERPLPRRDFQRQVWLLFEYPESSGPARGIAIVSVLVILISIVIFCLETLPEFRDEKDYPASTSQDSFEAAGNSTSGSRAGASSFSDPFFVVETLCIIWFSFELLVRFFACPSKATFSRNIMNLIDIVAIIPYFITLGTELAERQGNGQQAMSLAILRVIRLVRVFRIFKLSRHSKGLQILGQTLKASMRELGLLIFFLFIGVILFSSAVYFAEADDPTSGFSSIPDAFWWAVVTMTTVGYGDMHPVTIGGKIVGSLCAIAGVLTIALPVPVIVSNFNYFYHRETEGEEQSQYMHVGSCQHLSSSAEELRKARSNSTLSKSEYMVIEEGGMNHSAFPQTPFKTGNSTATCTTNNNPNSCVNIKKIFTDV
# ASSAY_TEXT: Kv1.3 potassium channel blocker activity, automated whole-cell patch clamp (Patchliner)
# RECORDED_CONDITIONS: CHO-K1 cells stably expressing Kv1.3; whole cell current inhibition; read-out: Kv1.3_IC50
PARAMETER_MEASURED: IC50

These solved cases illustrate the format of a correct answer.
In [3]: df
Out[3]:
                                   molecule  observed
0  N[C@@H](c1cc(Cl)c(Cl)cc1O)C1CCN(C(=O)C(CO)CO)CC1 [Compound 303, trifluoroacetic acid]  < 0.5 µM
1  NC(c1cc(Cl)c(Cl)cc1O)C1CCN(C2CCOCC2)CC1 (stereo not shown) [Compound 44]   < 10 µM

Entry N[C@@H](c1c(O)cc(Cl)c(Cl)c1Cl)C1CCNCC1 (single isomer, unassigned) [Compound 61, Trifluoroacetic Acid] ; IC50 = < 10 µM

Entry N[C@@H](c1c(O)ccc(Cl)c1Cl)C1CCN(C(=O)[C@H](O)CO)CC1 [Compound 187, Trifluoroacetic Acid] , IC50 reported as < 10 µM
